target: PARP7 (Homo sapiens (Human), UniProt Q7Z3E1); assay: Enzymatic assay for inhibition of PARP7: TR-FRET displacement of biotinylated Probe A from the TIPARP active site; details: Table A-1
Sequence (Q7Z3E1 whole entry): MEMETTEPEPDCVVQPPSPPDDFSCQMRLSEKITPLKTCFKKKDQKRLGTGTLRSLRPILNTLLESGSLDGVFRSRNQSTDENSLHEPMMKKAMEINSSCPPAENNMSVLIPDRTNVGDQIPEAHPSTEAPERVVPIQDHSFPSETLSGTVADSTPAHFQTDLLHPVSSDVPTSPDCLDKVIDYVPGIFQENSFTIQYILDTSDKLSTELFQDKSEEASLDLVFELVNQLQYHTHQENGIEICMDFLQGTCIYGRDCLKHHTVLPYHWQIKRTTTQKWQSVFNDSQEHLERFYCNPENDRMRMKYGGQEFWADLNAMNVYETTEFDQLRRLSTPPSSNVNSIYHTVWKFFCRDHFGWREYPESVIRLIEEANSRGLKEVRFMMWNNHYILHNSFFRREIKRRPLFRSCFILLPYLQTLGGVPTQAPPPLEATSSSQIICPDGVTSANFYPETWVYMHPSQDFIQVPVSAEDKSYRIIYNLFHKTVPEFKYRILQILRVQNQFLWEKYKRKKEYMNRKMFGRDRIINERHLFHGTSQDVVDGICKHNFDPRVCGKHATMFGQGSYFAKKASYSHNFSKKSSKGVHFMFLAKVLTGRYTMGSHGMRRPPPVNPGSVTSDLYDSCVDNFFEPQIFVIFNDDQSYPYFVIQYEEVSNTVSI
pIC50: −log10 of the molar value.
Attribute: pIC50

Worked examples, 5 compounds total:
- N#Cc1ccc(N2CCN(C(=O)[C@@H]3CCC[C@H](OC[C@@H]4CCCN4c4cn[nH]c(=O)c4C(F)(F)F)C3)CC2)nc1 (single isomer, unassigned) [Example 57 Isomer D]: 6.00 to 7.00
- N#Cc1ccc(N2CCN(C(=O)CNCCCOc3cn[nH]c(=O)c3C(F)(F)F)CC2)nc1: 6.00 to 7.00
- N#Cc1ccc(N2CCN(C(=O)C[C@H]3CC[C@H](COc4cn[nH]c(=O)c4Cl)O3)CC2)nc1 (single isomer, unassigned) [Example 582 Isomer B]: 6.00 to 7.00
- CC1CN(c2ccc(C#N)cn2)CCN1C(=O)CCOC[C@@H]1CCCN1c1cn[nH]c(=O)c1C(F)(F)F (stereo partly shown): > 7.00
- C[C@@H](COCCC(=O)N1CC=C(c2ncc(C(F)(F)F)cn2)CC1)Nc1cn[nH]c(=O)c1C(F)(F)F: > 7.00

Field request: pIC50 | item: N#Cc1ccc(N2CCN(C(=O)CCOC[C@H]3c4ncccc4CN3c3cn[nH]c(=O)c3C(F)(F)F)CC2)nc1 [Example 137B]
> 7.00

Field request: pIC50 | item: `COC[C@@H](COCCC(=O)N1CCN(c2cnc(Cl)cn2)CC1)Nc1cn[nH]c(=O)c1C(F)(F)F`
> 7.00

Field request: pIC50 | item: `Cc1c(OCCOCCC(=O)N2CCN(c3ncc(Cl)cn3)CC2)cn[nH]c1=O`
> 7.00

Field request: pIC50 | item: `O=C(c1cccc(OC[C@@H]2c3ccccc3CN2c2cn[nH]c(=O)c2C(F)(F)F)c1)N1CCn2c(nnc2C(F)(F)F)C1`
> 7.00

Field request: pIC50 | item: `O=C(CCOC[C@H]1c2ccccc2CN1c1cn[nH]c(=O)c1C(F)(F)F)N1CCNCC1`
≤ 6.00

Field request: pIC50 | item: `N#Cc1ccc(N2CCN(C(=O)c3cccc(OCCOC[C@H]4CCN(c5cn[nH]c(=O)c5C(F)(F)F)C4)c3)CC2)nc1`
> 7.00

Field request: pIC50 | item: C[C@@H](COCCC(=O)N1CCC(Oc2ncc(C#N)s2)C1)Nc1cn[nH]c(=O)c1C(F)(F)F (stereo partly shown)
> 7.00

Field request: pIC50 | item: O=C(C[C@@H]1CC[C@@H](COc2cn[nH]c(=O)c2C(F)(F)F)O1)N1CCN(c2ccc(C(F)(F)F)cn2)CC1 (single isomer, unassigned) [Example 545 Isomer A]
6.00 to 7.00

====

Attribute: pIC50
biological target: PARP7 (Homo sapiens (Human)); assay: Enzymatic assay for inhibition of PARP7: TR-FRET displacement of biotinylated Probe A from the TIPARP active site; details: Table A-1
pIC50: −log10 of the molar value.

Find the measured pIC50: item `N#Cc1ccc(N2CCN(C(=O)c3cc(OC[C@@H]4CCCN4c4cn[nH]c(=O)c4C(F)(F)F)ccn3)CC2)nc1` , target or system PARP7 (Homo sapiens (Human)).
> 7.00

Find the measured pIC50: item O=C(c1cccc(OC[C@@H]2c3ccccc3CN2c2cn[nH]c(=O)c2C(F)(F)F)c1)N1CCN(c2ccc(C(F)(F)F)cn2)CC1 (single isomer, unassigned) [Example 30 Isomer B] , target or system PARP7 (Homo sapiens (Human)).
> 7.00

Find the measured pIC50: item `O=C(c1cncc(OC[C@H]2c3ccccc3CN2c2cn[nH]c(=O)c2C(F)(F)F)c1)N1CCN(c2ccc(Cl)cn2)CC1` , target or system PARP7 (Homo sapiens (Human)).
6.00 to 7.00

Find the measured pIC50: item COc1cc2c(cc1F)CN(c1cn[nH]c(=O)c1C(F)(F)F)C2C (stereo not drawn) , target or system PARP7 (Homo sapiens (Human)).
6.00 to 7.00

Find the measured pIC50: item `O=c1[nH]ncc(N2Cc3ccc(OC4CCNCC4)nc3C2)c1C(F)(F)F` , target or system PARP7 (Homo sapiens (Human)).
6.00 to 7.00

====

target: PARP7 (Homo sapiens (Human)); assay: Enzymatic assay for inhibition of PARP7: TR-FRET displacement of biotinylated Probe A from the TIPARP active site; details: Table A-1
Attribute: IC50

Field request: IC50 | item: C[C@H](COCCC(=O)N1CCN(c2ccc(Cl)cn2)CC1)Oc1cn[nH]c(=O)c1C(F)(F)F (single isomer, unassigned) [Example 539 Isomer D]
100 to 1000 nM

Field request: IC50 | item: C[C@@H](COCCC(=O)N1CCN(c2ncc(C#N)s2)CC1)Oc1cn[nH]c(=O)c1C(F)(F)F [Example 711]
< 100 nM

Field request: IC50 | item: N#CCCC(=O)N1CCN(C(=O)CCOC[C@H]2c3ccccc3CN2c2cn[nH]c(=O)c2C(F)(F)F)CC1 [Example 424]
≥ 1000 nM

====

target: PARP7 (Homo sapiens (Human), UniProt Q7Z3E1); experiment: Enzymatic assay for inhibition of PARP7: TR-FRET displacement of biotinylated Probe A from the TIPARP active site; details: Table A-1
Attribute: IC50

Worked examples, 6 molecules total:
* COC[C@@H](COCCC(=O)N1CCN(c2ncc(C#N)s2)CC1)Nc1cn[nH]c(=O)c1C(F)(F)F | < 100 nM
* C[C@@H](COCCC(=O)N1CCN(c2ccc(C(F)(F)F)cn2)CC1)Nc1cn[nH]c(=O)c1C(F)(F)F | < 100 nM
* Cc1c(N2Cc3cccc(OC4CCNCC4)c3C2)cn[nH]c1=O | ≥ 1000 nM
* C[C@H](COCCC(=O)N1CCN(c2ncc(C(F)(F)F)cn2)CC1)Oc1cn[nH]c(=O)c1C(F)(F)F (single isomer, unassigned) [Example 544 Isomer B] | 100 to 1000 nM
* COCc1cccc2c1CN(c1cn[nH]c(=O)c1C(F)(F)F)C2 | < 100 nM
* N#Cc1ccc(N2CCN(C(=O)CCOC[C@H](Cc3ccccc3)Nc3cn[nH]c(=O)c3C(F)(F)F)CC2)nc1 [Example 515B] | < 100 nM

Find the measured IC50: item `C[C@@H](COCCC(=O)N1CCN(c2ncc(C#N)cn2)CC1)Oc1cn[nH]c(=O)c1C(F)(F)F` , target or system PARP7 (Homo sapiens (Human), UniProt Q7Z3E1).
< 100 nM

====

Attribute: IC50
molecular target: PARP7 (Homo sapiens (Human)); assay: Enzymatic assay for inhibition of PARP7: TR-FRET displacement of biotinylated Probe A from the TIPARP active site; conditions: Table A-1

* N#Cc1ccc(N2C[C@H]3C[C@@H]2CN3C(=O)CCOC[C@@H]2CCCN2c2cn[nH]c(=O)c2C(F)(F)F)nc1 [Example 112B] | ≥ 1000 nM
* COC[C@@H](COCCC(=O)N1CCN(c2ccc(C#N)cn2)CC1)Nc1cn[nH]c(=O)c1C(F)(F)F (single isomer, unassigned) [Example 518B] | < 100 nM
* C[C@@H](COCCC(=O)N1CCN(c2ccc(C#N)cn2)CC1)Nc1cn[nH]c(=O)c1C(F)(F)F [Example 513A] | < 100 nM
* C[C@H](COc1cn[nH]c(=O)c1C(F)(F)F)OCCC(=O)N1CCN(c2ccc(Cl)cn2)CC1 (single isomer, unassigned) [Example 539 Isomer C] | < 100 nM
* N#Cc1ccc(N2CCN(C(=O)CCNC[C@H]3c4ccccc4CN3c3cn[nH]c(=O)c3Cl)CC2)nc1 | ≥ 1000 nM

Field request: IC50 | item: `O=c1[nH]ncc(N2Cc3cccc(Cl)c3C2)c1C(F)(F)F`
< 100 nM

Field request: IC50 | item: `N#Cc1ccc(N2CCN(C(=O)CCOC[C@@H]3C[C@H](N)CN3c3cn[nH]c(=O)c3C(F)(F)F)CC2)nc1`
< 100 nM

Field request: IC50 | item: N#Cc1ccc(N2CCN(C(=O)[C@H]3CNC[C@H](OC[C@@H]4CCCN4c4cn[nH]c(=O)c4C(F)(F)F)C3)CC2)nc1 (single isomer, unassigned) [Example 56 Isomer B]
100 to 1000 nM

Field request: IC50 | item: `N#Cc1ccc(N2CCN(C(=O)CCOC[C@@H]3C[C@H](C(F)(F)F)CN3c3cn[nH]c(=O)c3C(F)(F)F)CC2)nc1`
< 100 nM

Field request: IC50 | item: N#Cc1ccc(N2CCN(C(=O)CCCOCC3c4ccccc4CN3c3cn[nH]c(=O)c3C(F)(F)F)CC2)nc1 (stereo not shown)
< 100 nM

Field request: IC50 | item: O=C(CCOC[C@@H](Nc1cn[nH]c(=O)c1C(F)(F)F)[C@@H]1CCOC1)N1CCN(c2ncc(C(F)(F)F)cn2)CC1 (single isomer, unassigned) [Example 614 Isomer A]
≥ 1000 nM

Field request: IC50 | item: C[C@@H](CC(=O)N1CCN(c2ccc(C#N)cn2)CC1)OC[C@H](C)Oc1cn[nH]c(=O)c1C(F)(F)F (single isomer, unassigned) [Example 576 Isomer B]
< 100 nM

Field request: IC50 | item: O=C(C[C@H]1CC[C@H](CNc2cn[nH]c(=O)c2C(F)(F)F)O1)N1CCN(c2ncc(C(F)(F)F)cn2)CC1 (single isomer, unassigned) [Example 568 Isomer B]
< 100 nM

Field request: IC50 | item: `N#CCc1ccc(N2CCN(C(=O)c3cccc(OC[C@@H]4CCCN4c4cn[nH]c(=O)c4C(F)(F)F)c3)CC2)cc1`
< 100 nM

Field request: IC50 | item: `N#Cc1ccc(N2CCN(C(=O)c3cccc(OC[C@@H]4C[C@H](C#N)CN4c4cn[nH]c(=O)c4C(F)(F)F)c3)CC2)nc1`
< 100 nM
